Tested on: M14 melanoma
assay_procedure: NCI-60 one-dose screen, 48 h
assay_setup: 10 µM unless noted
This is part of a sample that, as a whole, favours compounds with a hit. Of some 83,000 tested, about 20% had one in any assay. Activity calls are given as the source filed them. The calls were made as follows: active = growth percent below 10; inactive = the rest.
Field 'call' accepts active, inactive

A selection of reference data follows.
input_smiles: COC(=O)CCC1=C(C)C2=NC1=CC1=NC(=CC3=NC(=Cc4[nH]c(/c(=C(/C)O)c4C)=C2)C(C(C)=O)=C3C)C(C)=C1CCC(=O)OC
tested_target: M14 melanoma
group_label: inactive
--
input_smiles: O=C1OC(c2nc3ccccc3s2)=C/C1=C\c1ccc(O)cc1
tested_target: M14 melanoma
group_label: inactive
--
input_smiles: CNC(=O)c1cc(Oc2ccc3nc(Nc4ccc(Cl)c(C(F)(F)F)c4)ccc3c2)ccn1
tested_target: M14 melanoma
group_label: inactive
--
input_smiles: Cc1c(C)c2c(c(C)c1OCC(=O)O)CC[C@@](C)(CCC[C@@H](C)CCC[C@@H](C)CCCC(C)C)O2
tested_target: M14 melanoma
group_label: active

Attention now turns to another entry.
Look up the recorded call for N#Cc1c(N)nc2c(C#N)c(NC(=O)c3ccccc3)nn2c1-c1ccccc1 in this test. inactive

---

System: UACC-62 melanoma
assay_procedure: NCI-60 one-dose screen, 48 h (100 = growth as untreated, 0 = no growth, -100 = all killed)
assay_setup: 10 µM unless noted
The panel holds about 83,000 compounds, 20% with a hit somewhere; the sample as a whole holds those more often. Calls of active or inactive are those of the source. How the source made its calls: active means growth percent below 10; inactive means the rest.
metric: growth

Past entries and their recorded results:
compound: COc1cc(/C=C/C(=O)c2c(C)nc3ccccc3c2/C=C/c2ccc(C)cc2)cc(OC)c1OC
tested_target: UACC-62 melanoma
metric: growth
result: 25.6% (inactive)

compound: O=C1Nc2ccccc2/C1=C/c1cn(C(=O)c2c(Cl)cccc2Cl)c2ccccc12
tested_target: UACC-62 melanoma
metric: growth
result: 36.7% (inactive)

compound: Cc1nc2ccccc2c(/C=C/c2ccc(Cl)cc2)c1C(=O)/C=C/c1ccc(F)cc1
tested_target: UACC-62 melanoma
metric: growth
result: 0.679% (active)

compound: CCCCCCCCCCCCCCCCCCOc1ccc(CC(=O)OCC[N+]2(C)CCCC2)cc1
tested_target: UACC-62 melanoma
metric: growth
result: 96.2% (inactive)

compound: COc1cc(/C=N/Nc2ncc(-c3cc4cc5c(cc4o3)OCO5)s2)cc(OC)c1OC
tested_target: UACC-62 melanoma
metric: growth
result: 33.7% (inactive)

compound: O=C(NC(Cc1nnc2n(Cc3ccccc3)c(=O)c3c4c(sc3n12)CCCC4)c1ccc(Cl)cc1)c1ccccc1 (centres undefined)
tested_target: UACC-62 melanoma
metric: growth
result: 63.1% (inactive)

Parameters: items (list). Returns: growth for each item.
1. Cc1ccc(C(=O)COc2cccc(/C=C3\Oc4ccccc4C3=O)c2)cc1
2. N=c1sc(Cc2ccc(Cl)cc2)cn1CC(=O)c1ccc(F)cc1
3. O=C(Nc1cccc(Oc2nnc(Cl)c3ccccc23)c1)Nc1ccc(Cl)c(C(F)(F)F)c1

73.2% (inactive)
9.38% (active)
-82.5% (active)

---

Tested on: MCF7 breast
assay_procedure: NCI-60 one-dose screen, 48 h (100 = growth as untreated, 0 = no growth, -100 = all killed)
assay_setup: 10 µM unless noted
Compounds without any hit were thinned out: in the full panel of roughly 83,000, 20% have a hit.
metric: growth (%)
Numbers only, in %.

Can you give me growth for all of these, one by one?
1. COc1cccc(-c2nc3sccn3c2-c2ccnc(NCCNS(=O)(=O)c3cccc(F)c3)c2)c1
2. COc1ccc2c(c1)O/C(=C\c1cccc(OCC(=O)Nc3nc4ccccc4s3)c1)C2=O

1. 37.7
2. 73.7

Give growth for all molecules that follow.
1. CCn1c(C)nc2cc(C(N)=O)ccc21
2. Cn1cc2c(c1)-c1nc(Nc3ccccc3)ncc1CC2

1. 91.5
2. 25.2

Could you report growth for every entry in the following list?
1. Cc1ccccc1NC(=O)N/C(N)=N/c1nc(C)c(C)s1
2. N#C/C(=C\c1ccc(Br)cc1)n1nnc2cc(F)c(F)cc21
3. COc1ccc(C2=Nc3c(N)ncnc3NC(c3ccc4c(c3)OCO4)C2)cc1 (stereo not given)
4. CC/C=C\C/C=C\C[C@H](O)C/C=C1/C(=O)C=C[C@@H]1C/C=C\CCCC(=O)O

1. 21.4
2. 14
3. 76.1
4. 23.6

Report growth for every entry below.
1. Cc1nn(-c2ccccc2)c2nc3c(c(-c4ccc(Cl)cc4)c12)CNC1(CCSCC1)N3
2. CC1(C)CC(=O)CC2(C1)N=C(N)Nc1nc3ccccc3n12 (stereo not given)

[93, 89.4]
